All figures here come from the supplement of paper PMC13380429.

Test system: Vero E6
Assay: cell viability relative to DMSO; higher = less toxic
Settings: 72 h; 100 nM
Outcome measure: cell viability (%)
Hi! Could you send only the number? It should be in %, unit omitted.

# example entries with known answers
>>> df
                                   molecule      tgt  reported
0  Cc1nc(NC(=O)N2CCC[C@H]2C(N)=O)sc1-c1ccnc(C(C)(C)C(F)(F)F)c1  Vero E6      98.4
1  COc1ccc2cccc(N3CCN(CCNC(=O)c4ccc(F)cc4)CC3)c2c1  Vero E6      97.5
2  O=C(Nc1ccccc1)N[C@H]1C[C@H](C(=O)O)Nc2cc(Cl)cc(Cl)c21  Vero E6       100
3        Oc1ccc2ccccc2c1SSc1c(O)ccc2ccccc12  Vero E6       102
4  COc1cc2c(cc1F)C(c1ccccc1Cl)=Nc1c(n[nH]c1C)N2  Vero E6      99.6

Entry `Nc1ncnc2c1c(-c1cccc(OCc3ccccc3)c1)cn2[C@H]1C[C@@H](CN2CCC2)C1` ; cell viability = 99

Entry `CC[C@H]1[C@@H]2C[C@H]3[C@@H]4N(C)c5ccccc5[C@]45C[C@@H]([C@@H]2[C@H]5O)N3[C@@H]1O` ; cell viability = 105

Entry `CCS(=O)(=O)Nc1ccc2c(c1)/C(=C(/Nc1ccc(CN3CCCCC3)cc1)c1ccccc1)C(=O)N2` ; cell viability = 82.7

Entry `Cc1cccc(C)c1OCC(=O)N[C@@H](Cc1ccccc1)[C@@H](O)C[C@H](Cc1ccccc1)NC(=O)[C@H](C(C)C)N1CCCNC1=O` ; cell viability = 100

Entry `O=C(Nc1ccccc1)c1cc([N+](=O)[O-])ccc1Cl` ; cell viability = 98.2

Entry COc1ccccc1OCCNCC(O)COc1cccc2[nH]c3ccccc3c12 (stereo not given) ; cell viability = 94.2

Entry `Cc1cc(NC(=O)NCCN2CCC(O)(Cc3ccccc3)CC2)c2ccccc2n1` ; cell viability = 99.4

Entry `O=C1NC(=S)NC(=O)C1C(=O)Nc1ccccc1` ; cell viability = 93.9

Entry `COc1cc2ncnc(Nc3ccc(Cl)cc3F)c2cc1OC` ; cell viability = 87.7

Entry `NCCCCN` ; cell viability = 100

###

System: Vero E6
Assay: cell viability relative to DMSO; higher = less toxic
Conditions: 72 h; 1000 nM
The following compounds are shown together with reported cell viability values.
Hi! Could you send only the number? It should be in %, unit omitted.

# example entries with known answers
>>> print(df.to_string())
                                   compound  reported
0  Cc1cc(NC(=O)NCCN2CCC(O)(Cc3ccccc3)CC2)c2ccccc2n1 [palosuran]       104
1  COc1cc2c(cc1OC)CN(C(=O)/C=C/c1c(-c3ccccc3)n(C)c3ncccc13)CC2 [SIS3]      98.2
2  COc1ccc(CN(CCN(C)C)c2ncccn2)cc1 [thonzylamine]       104

Entry c1ccc(C2CC2)c(OCC2=NCCN2)c1 [cirazoline] ; cell viability = 106

Entry CC(=O)S[C@@H]1CC2=CC(=O)CC[C@]2(C)[C@H]2CC[C@@]3(C)[C@@H](CC[C@@]34CCC(=O)O4)[C@H]12 [spironolactone] ; cell viability = 88.7

###

The following compounds are shown together with reported cell viability values.
Test system: Calu-3
Test: cell viability relative to DMSO; higher = less toxic
Settings: 72 h; 10 nM
Hi! Could you send only the number? It should be in %, unit omitted.

# example entries with known answers
Compound	Quantity unit	cell viability
CCCCNC(=O)NS(=O)(=O)c1ccc(C)cc1 [tolbutamide]	%	90.2
O=C(Nc1ccc(Cl)nc1)c1ccc(Cl)cc1	%	90.6
c1ccc(C2CC2)c(OCC2=NCCN2)c1 [cirazoline]	%	97.2

Entry CC(C)C[C@H](NC(=O)[C@@H](COC(C)(C)C)NC(=O)[C@H](Cc1ccc(O)cc1)NC(=O)[C@H](CO)NC(=O)[C@H](Cc1c[nH]c2ccccc12)NC(=O)[C@H](Cc1cnc[nH]1)NC(=O)[C@@H]1CCC(=O)N1)C(=O)N[C@@H](CCCNC(=N)N)C(=O)N1CCC[C@H]1C(=O)NNC(N)=O [goserelin-acetate] ; cell viability = 97.7

Entry C[C@]12N[C@H](Cc3ccccc31)c1ccccc12 [dizocilpine-(-)] ; cell viability = 96.6

Entry COc1c(C)cnc(Cn2cnc3c(Cl)nc(N)nc32)c1C [BIIB021] ; cell viability = 109

Entry CN1CCN(c2cccc3[nH]c(=O)oc23)CC1 [pardoprunox] ; cell viability = 93.2

Entry C[C@@H]1NC(=O)[C@@H]2CCCN2C(=O)[C@H](CC(N)=O)NC(=O)[C@@H]2CSSC[C@H](N)C(=O)N[C@H]3CSSC[C@H](NC1=O)C(=O)N[C@@H]([C@@H](C)O)C(=O)NCC(=O)N[C@H](C(=O)N[C@@H](Cc1ccc(O)cc1)C(=O)O)CSSC[C@H](NC(=O)[C@H](Cc1ccc(O)cc1)NC(=O)[C@H](CCC(=O)O)NC3=O)C(=O)N2 [linaclotide] ; cell viability = 91.2

###

Test system: HepG2
Test: cell viability relative to DMSO; higher = less toxic
Conditions: 72 h; 1 nM
Outcome measure: cell viability (%)
Hi! Could you send only the number? It should be in %, unit omitted.

# example entries with known answers
                                   compound  outcome_measure  reported
0              NC(=O)CN1CCCC1=O [piracetam]   cell viability      92.1
1  COC1(C2=NCCN2)COc2ccccc2O1 (stereo not drawn)   cell viability       109
2  N=C(N)N/N=C/c1c(Cl)cccc1Cl [guanaben-acetate]   cell viability      98.1
3  CN1CCN(c2cccc3[nH]c(=O)oc23)CC1 [pardoprunox]   cell viability      90.7
4  CC=C1C(=O)C[C@H]2[C@@H]3CCC4=CC(=O)CC[C@]4(C)[C@H]3CC[C@]12C [GR-235]   cell viability      85.2

Bench note, HepG2: CC(=O)S[C@@H]1CC2=CC(=O)CC[C@]2(C)[C@H]2CC[C@@]3(C)[C@@H](CC[C@@]34CCC(=O)O4)[C@H]12 [spironolactone] , cell viability reads 104

Bench note, HepG2: CC(=O)NC[C@H]1CN(c2ccc(N3CCN(C(=O)CO)CC3)c(F)c2)C(=O)O1 [eperezolid] , cell viability reads 99.1

Bench note, HepG2: COc1cc2c(cc1OC)CN(C(=O)/C=C/c1c(-c3ccccc3)n(C)c3ncccc13)CC2 [SIS3] , cell viability reads 98.9

###

The following compounds are shown together with reported cell viability values.
Tested on: U2OS
Assay: cell viability relative to DMSO; higher = less toxic
Details: 72 h; 10 nM

# example entries with known answers
>>> print(df.to_string())
                                   compound   tgt  reported
0   COc1ccc2c(C)nc(Nc3nc(C)c(C)c(O)n3)nc2c1  U2OS     98.1%
1  Cc1oc(-c2ccccc2)nc1CCC(=O)c1ccc(CC2SC(=O)NC2=O)cc1 (stereo not drawn)  U2OS     98.7%
2  CO[C@H]1CC[C@H](N(c2cc(C3=CCCCC3)sc2C(=O)O)C(=O)[C@H]2CC[C@H](C)CC2)CC1  U2OS     98.7%

Entry `CC(=O)N[C@@H](CC(C)C)C(=O)O` ; cell viability = 99.9%

Entry `CCCOc1ccc2c(c1)CC[C@@H]1[C@@H]2CC[C@]2(C)[C@@H](OC)CC[C@@H]12` ; cell viability = 105%

Entry `CN1CCN(C2CCN(C(=O)Nc3cc(Oc4ccc(NC(=O)C5(C(=O)Nc6ccc(F)cc6)CC5)c(F)c4)ccn3)CC2)CC1` ; cell viability = 102%

Entry `COc1ccccc1N1CCN(CCCCNC(=O)c2ccc(-c3ccc(C(C)=O)cc3)cc2)CC1` ; cell viability = 95.8%

Entry `CCS(=O)(=O)Nc1ccc2c(c1)/C(=C(/Nc1ccc(CN3CCCCC3)cc1)c1ccccc1)C(=O)N2` ; cell viability = 94.3%

###

System: Calu-3
Assay: cell viability relative to DMSO; higher = less toxic
Conditions: 72 h; 1 nM
Outcome measure: cell viability
Field: value (include unit after the number)

# example entries with known answers
>>> print(df.to_string())
                                   molecule  outcome_measure  reported
0  CCOC(=O)[C@H](CCc1ccccc1)N[C@@H](C)C(=O)N1C(=O)N(C)C[C@H]1C(=O)O   cell viability     98.5%
1  COc1cc(OCc2cccc(-c3ccccc3)c2C)cc(OC)c1CN1CCCC[C@H]1C(=O)O   cell viability     98.2%
2  COc1ccc(COc2cc3oc(=O)c4cc(C(C)O)ccc4c3cc2OC)cc1 (stereo not drawn)   cell viability      111%
3  NC1(C(=O)N[C@@H](CCO)c2ccc(Cl)cc2)CCN(c2ncnc3[nH]ccc23)CC1   cell viability      113%
4     O=C(c1cc2ccccc2o1)N1CCN(Cc2ccccc2)CC1   cell viability     94.1%
5  NC(=O)[C@@H](CCC(F)(F)F)N(Cc1ccc(-c2ncon2)cc1F)S(=O)(=O)c1ccc(Cl)cc1   cell viability     96.2%
6           CN1CCN(c2cccc3[nH]c(=O)oc23)CC1   cell viability     95.8%
7                        CC(=O)Nc1cccc(O)c1   cell viability     98.1%
8  CC(=O)S[C@@H]1CC2=CC(=O)CC[C@]2(C)[C@H]2CC[C@@]3(C)[C@@H](CC[C@@]34CCC(=O)O4)[C@H]12   cell viability     90.7%
9      Cc1cccc(NC(=O)CN2CCC(c3ccccn3)CC2)c1   cell viability      110%

Bench note, Calu-3: `Cn1cc(-c2ccc(S(=O)(=O)n3ccc(/C=C/C(=O)Nc4ccccc4N)c3)cc2)cn1` , cell viability reads 91.7%

Bench note, Calu-3: `O=C1N=C(NCc2cccs2)S/C1=C\c1ccc2ncccc2c1` , cell viability reads 101%

Bench note, Calu-3: CCC(CO)(C(=O)OC1CC2CCC(C1)[N+]2(C)C)c1ccccc1 (stereo not drawn) , cell viability reads 99.8%
